Could you please report measured kon for the items listed next?
assayed system: T1, cynomolgus CD3 epsilon (cynomolgus monkey, UniProt Q95LI5 22-117, limits assumed)
T1 construct: Recombinant protein; also called cyno CD3E
T1 sequence: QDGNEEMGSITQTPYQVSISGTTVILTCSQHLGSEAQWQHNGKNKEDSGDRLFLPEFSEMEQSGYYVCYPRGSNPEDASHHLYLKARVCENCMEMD
method notes: SPR (Biacore), antibody captured, cynomolgus CD3 epsilon analyte

Worked cases, answers included:
binder: SRP 2037-B10 F29D/LC6 (antibody, human IgG1, kappa, V domains shown, human IgG1, kappa) VH: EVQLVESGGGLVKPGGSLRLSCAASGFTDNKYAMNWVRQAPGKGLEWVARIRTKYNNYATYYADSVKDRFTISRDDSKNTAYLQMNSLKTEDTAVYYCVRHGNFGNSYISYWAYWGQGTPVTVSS VL: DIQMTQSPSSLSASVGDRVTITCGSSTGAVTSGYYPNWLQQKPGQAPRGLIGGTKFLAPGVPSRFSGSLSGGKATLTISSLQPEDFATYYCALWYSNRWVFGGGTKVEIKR
experimental value: 206000 M⁻¹ s⁻¹

binder: 2037-B10_Hc-F104D (antibody, human IgG1, lambda, V domains shown, human IgG1, lambda; also called SRP 2037 F104D; 2037-B10_VH-F104D) VH: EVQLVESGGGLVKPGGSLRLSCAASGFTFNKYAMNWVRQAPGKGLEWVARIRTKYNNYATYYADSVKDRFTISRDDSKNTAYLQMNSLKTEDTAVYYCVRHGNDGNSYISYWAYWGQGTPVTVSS VL: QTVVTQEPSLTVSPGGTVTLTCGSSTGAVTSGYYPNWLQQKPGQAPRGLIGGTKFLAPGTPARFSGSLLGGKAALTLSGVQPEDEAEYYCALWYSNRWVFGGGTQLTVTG
experimental value: 166000 M⁻¹ s⁻¹

binder: SRP 2037-B10 S107D/LC6 (antibody, human IgG1, kappa, V domains shown, human IgG1, kappa; also called 2037-B10 IgG S107D Lc6) VH: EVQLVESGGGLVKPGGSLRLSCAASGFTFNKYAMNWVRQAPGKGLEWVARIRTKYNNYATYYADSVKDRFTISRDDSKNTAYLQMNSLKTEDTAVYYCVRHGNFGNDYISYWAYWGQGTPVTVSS VL: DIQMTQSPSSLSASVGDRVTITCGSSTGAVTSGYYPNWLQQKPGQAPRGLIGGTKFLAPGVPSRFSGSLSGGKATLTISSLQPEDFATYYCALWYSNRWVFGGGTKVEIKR
experimental value: 164000 M⁻¹ s⁻¹

binder: 2037-B10_Hc-F29D (antibody, human IgG1, lambda, V domains shown, human IgG1, lambda; also called SRP 2037 F29D; 2037-B10_VH-F29D) VH: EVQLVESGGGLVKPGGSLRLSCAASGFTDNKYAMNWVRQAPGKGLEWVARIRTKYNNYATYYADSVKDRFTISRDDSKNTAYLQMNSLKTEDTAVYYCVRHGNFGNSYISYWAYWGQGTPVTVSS VL: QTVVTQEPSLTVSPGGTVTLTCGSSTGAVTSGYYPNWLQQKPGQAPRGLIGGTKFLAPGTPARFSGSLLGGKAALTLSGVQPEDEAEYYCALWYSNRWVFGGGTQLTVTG
experimental value: 213000 M⁻¹ s⁻¹

binder: SRP 2037-B10 F104D/LC6 (antibody, human IgG1, kappa, V domains shown, human IgG1, kappa) VH: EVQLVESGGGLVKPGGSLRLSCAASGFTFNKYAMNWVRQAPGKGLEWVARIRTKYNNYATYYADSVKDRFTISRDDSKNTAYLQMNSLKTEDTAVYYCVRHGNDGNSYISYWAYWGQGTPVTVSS VL: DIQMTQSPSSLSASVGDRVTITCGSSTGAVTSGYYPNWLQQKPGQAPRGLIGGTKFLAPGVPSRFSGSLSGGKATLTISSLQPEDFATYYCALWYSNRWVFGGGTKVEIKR
experimental value: 111000 M⁻¹ s⁻¹

List reported kon for each of these binders:
1. SRP 2037-B10 Y61D/LC6 (antibody, human IgG1, kappa, V domains shown, human IgG1, kappa) VH: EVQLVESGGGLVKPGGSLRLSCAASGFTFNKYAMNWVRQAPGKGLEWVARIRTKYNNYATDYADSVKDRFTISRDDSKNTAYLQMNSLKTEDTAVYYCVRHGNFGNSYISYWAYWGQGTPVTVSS VL: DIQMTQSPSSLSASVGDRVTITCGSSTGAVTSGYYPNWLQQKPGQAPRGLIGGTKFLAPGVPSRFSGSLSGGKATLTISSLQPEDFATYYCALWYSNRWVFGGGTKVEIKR
2. SRP 2037-B10 Y55D/LC6 (antibody, human IgG1, kappa, V domains shown, human IgG1, kappa) VH: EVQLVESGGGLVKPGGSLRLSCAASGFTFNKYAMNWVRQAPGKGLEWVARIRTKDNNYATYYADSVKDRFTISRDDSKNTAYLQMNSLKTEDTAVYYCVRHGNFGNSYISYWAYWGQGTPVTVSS VL: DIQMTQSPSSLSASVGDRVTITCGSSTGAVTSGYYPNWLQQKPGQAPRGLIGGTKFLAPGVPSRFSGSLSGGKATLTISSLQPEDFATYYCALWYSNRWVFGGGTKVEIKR
3. 2037-B10_Hc-Y55D (antibody, human IgG1, lambda, V domains shown, human IgG1, lambda; also called SRP 2037 Y55D; 2037-B10_VH-Y55D) VH: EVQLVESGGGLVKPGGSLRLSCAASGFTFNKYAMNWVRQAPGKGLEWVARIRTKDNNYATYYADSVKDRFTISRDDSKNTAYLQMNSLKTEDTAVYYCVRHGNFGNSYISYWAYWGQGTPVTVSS VL: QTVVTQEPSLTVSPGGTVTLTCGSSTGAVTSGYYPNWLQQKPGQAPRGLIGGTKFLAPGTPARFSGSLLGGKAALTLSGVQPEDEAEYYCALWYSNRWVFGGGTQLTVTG
4. 2037-B10_Hc-S107D (antibody, human IgG1, lambda, V domains shown, human IgG1, lambda; also called SRP 2037 S107D; 2037-B10_VH-S107D) VH: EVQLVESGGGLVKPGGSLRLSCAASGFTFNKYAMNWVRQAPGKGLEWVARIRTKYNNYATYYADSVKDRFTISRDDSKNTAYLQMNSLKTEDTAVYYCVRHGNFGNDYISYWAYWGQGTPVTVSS VL: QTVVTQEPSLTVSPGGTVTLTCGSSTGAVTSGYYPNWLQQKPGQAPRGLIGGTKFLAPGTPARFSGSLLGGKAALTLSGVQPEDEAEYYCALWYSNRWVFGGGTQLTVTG
5. 2037-B10_Hc-Y61D (antibody, human IgG1, lambda, V domains shown, human IgG1, lambda; also called SRP 2037 Y61D; 2037-B10_VH-Y61D) VH: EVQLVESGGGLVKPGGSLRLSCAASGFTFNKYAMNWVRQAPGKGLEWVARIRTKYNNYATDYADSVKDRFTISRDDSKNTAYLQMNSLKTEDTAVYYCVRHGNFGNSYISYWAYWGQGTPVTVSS VL: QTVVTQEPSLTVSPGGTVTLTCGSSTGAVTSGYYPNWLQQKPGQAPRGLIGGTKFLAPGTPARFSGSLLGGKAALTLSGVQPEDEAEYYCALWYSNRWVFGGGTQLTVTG

387000 M⁻¹ s⁻¹
451000 M⁻¹ s⁻¹
579000 M⁻¹ s⁻¹
207000 M⁻¹ s⁻¹
709000 M⁻¹ s⁻¹
